Each entry below carries its measured RAC, system: Estrogen receptor (Ovis aries) (UniProt P49885+Q9TU15).
OBSERVATION_TYPE: RAC

Below, each entry is followed by its recorded RAC result.
INSERT INTO results (molecule, observation_type, result) VALUES
  ('Oc1ccc(/C(=C(/c2ccc(O)cc2)C(F)(F)F)C(F)(F)F)cc1', 'RAC', 48),
  ('C/C(=C(/C)c1ccc(O)cc1)c1ccc(O)cc1', 'RAC', 20),
  ('CCC(c1ccc(O)cc1)C(CCI)c1ccc(O)cc1 (stereo not given)', 'RAC', 60),
  ('CC[C@H](c1ccc(O)cc1)[C@@H](CC)c1ccc(O)cc1', 'RAC', 300),
  ('CCC(c1ccc(O)cc1)C(CCF)c1ccc(O)cc1 (stereo not given)', 'RAC', 129);

P. CCC(c1ccc(O)cc1)C(CCBr)c1ccc(O)cc1 (stereo not given)
Q. Oc1ccc(/C(=C(/c2ccccc2)C(F)(F)F)C(F)(F)F)cc1
R. CCC(c1ccc(O)cc1)C(CCCl)c1ccc(O)cc1 (stereo not given)
S. Oc1ccc(C(=C(C(F)(F)F)C(F)(F)F)c2ccccc2)cc1
T. Oc1ccc(C(=C2CCCCC2)c2ccc(O)cc2)cc1
Sort entries by RAC from minimum to maximum value. Note for the reader: the ranking is given by listing the labels in the order requested.
Q, S, T, P, R
(Q: 10, S: 21, T: 32, P: 71, R: 113)
